# System: FLuc-C-NLuc (firefly luciferase) (Photinus pyralis, UniProt P08659, form not given/L550V)
# Sequence (P08659 2-550 L550V, form open): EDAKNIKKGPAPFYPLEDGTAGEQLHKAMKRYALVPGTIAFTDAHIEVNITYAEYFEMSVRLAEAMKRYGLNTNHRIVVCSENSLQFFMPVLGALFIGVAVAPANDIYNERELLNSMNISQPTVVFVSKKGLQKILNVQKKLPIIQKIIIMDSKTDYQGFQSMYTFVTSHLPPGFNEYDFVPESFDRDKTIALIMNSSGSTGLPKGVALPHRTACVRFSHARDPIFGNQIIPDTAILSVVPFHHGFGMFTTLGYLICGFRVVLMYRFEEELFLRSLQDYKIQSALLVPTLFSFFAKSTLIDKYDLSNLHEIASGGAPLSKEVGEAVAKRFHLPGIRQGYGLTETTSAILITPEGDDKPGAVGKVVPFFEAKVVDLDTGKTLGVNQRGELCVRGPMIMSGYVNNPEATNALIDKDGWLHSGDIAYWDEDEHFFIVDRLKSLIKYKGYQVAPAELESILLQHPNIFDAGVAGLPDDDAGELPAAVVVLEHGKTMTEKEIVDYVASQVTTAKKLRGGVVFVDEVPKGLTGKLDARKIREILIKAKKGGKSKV
# Test summary: SDR assay, FLuc-C-NLuc
# Measurement parameters: 1 nM FLuc-C-NLuc; normalized activity; Log [Compound], M -8.78
Below, each of the compounds is paired with its reported SDR No ATP value.
I'd appreciate a reply containing only the number, no unit.

CC(CNC(=O)C1CCN(C(=O)c2ncn3c2COC(c2ccccc2)C3)CC1)c1ccccc1 (centres unmarked)
-2.4
COc1ccc(-c2nc(-c3ccc(C(=O)O)cc3)no2)cc1
5.3
O=C(O)CCSc1nnc(-c2ccc(Cl)cc2Cl)o1
3.1
CC1CCCN(c2ncnc3c2cnn3-c2ccccc2)C1 (centres unmarked)
2.6
Cc1ccc(-n2ncc3c(N4CCCCCC4)ncnc32)cc1
0.2

What reported SDR No ATP corresponds to `CNC(=O)c1cccc2c1CCN2C(=O)Nc1ccc(C)cc1` on FLuc-C-NLuc (firefly luciferase) (Photinus pyralis, UniProt P08659, form not given/L550V)? 0.5

What reported SDR No ATP corresponds to `O=C(O)c1cccc2c1CCN2C(=O)Nc1ccc(F)cc1` on FLuc-C-NLuc (firefly luciferase) (Photinus pyralis, UniProt P08659, form not given/L550V)? 9.5

What reported SDR No ATP corresponds to `Fc1ccc(-c2cn3cc(Cc4ccccc4)sc3n2)cc1` on FLuc-C-NLuc (firefly luciferase) (Photinus pyralis, UniProt P08659, form not given/L550V)? 7.5

* * *

# System: FLuc-C-NLuc (firefly luciferase) (Photinus pyralis, UniProt P08659, form not given/L550V)
# Test summary: SDR assay, FLuc-C-NLuc
# Measurement parameters: Log[Compound], M -7.82; 10 mM ATP
Define the label as 1 when SDR+ATP is strictly less than 8 and as -1 in all remaining cases.

The examples below pair each entry with its known result.
CC(CNC(=O)C1CCN(C(=O)c2ncn3c2COC(c2ccccc2)C3)CC1)c1ccccc1 (centres unmarked)
-1
COc1ccc(NC(=O)C2CCN(C(=O)c3ncn4c3COC(c3ccccc3)C4)CC2)cc1Cl (centres unmarked)
-1
CC1CCC(NC(=O)C2CCN(C(=O)c3ncn4c3COC(c3ccc(Cl)cc3)C4)CC2)CC1 (centres unmarked)
1

Next molecule, please.
Say whether its SDR+ATP is strictly beneath 8. Entry: CC(NC(=O)C1CCN(C(=O)c2ncn3c2COC(c2ccc(F)cc2)C3)CC1)c1ccc(F)cc1 (centres unmarked) 1

* * *

# System: P. pyralis FLuc (Photinus pyralis, UniProt P08659)
# Sequence (P08659 whole entry): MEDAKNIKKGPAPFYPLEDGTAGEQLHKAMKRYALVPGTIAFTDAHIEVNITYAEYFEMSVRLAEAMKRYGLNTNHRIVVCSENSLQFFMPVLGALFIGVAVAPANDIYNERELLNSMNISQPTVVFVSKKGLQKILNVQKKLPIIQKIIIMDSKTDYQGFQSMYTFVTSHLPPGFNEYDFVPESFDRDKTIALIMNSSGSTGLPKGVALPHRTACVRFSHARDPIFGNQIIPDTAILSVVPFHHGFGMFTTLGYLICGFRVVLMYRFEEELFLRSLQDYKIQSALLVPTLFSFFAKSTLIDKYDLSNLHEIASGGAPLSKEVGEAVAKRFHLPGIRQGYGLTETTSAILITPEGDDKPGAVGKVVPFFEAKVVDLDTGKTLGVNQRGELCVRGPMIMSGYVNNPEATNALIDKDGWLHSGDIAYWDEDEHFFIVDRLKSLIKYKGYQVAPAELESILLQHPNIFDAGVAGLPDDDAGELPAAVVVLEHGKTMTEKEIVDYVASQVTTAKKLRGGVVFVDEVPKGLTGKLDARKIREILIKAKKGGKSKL
# Test summary: FLuc enzymatic luminescence assay, P. pyralis FLuc
# Type: biochemical
# Measurement parameters: FLuc enzymatic assay
Metric name: pIC50 or pSDR50 FLuc E
I'd appreciate a reply containing only the number, no unit.

CCc1ccc(CNC(=O)C2CCN(C(=O)c3ncn4c3COC(c3ccccc3)C4)CC2)cc1 (stereo not shown)
5.01
CCOc1cccc(CNC(=O)C2CCN(C(=O)c3ncn4c3COC(c3ccccc3)C4)CC2)c1 (stereo not shown)
4.96
COc1ccccc1CNC(=O)C1CCN(C(=O)c2ncn3c2COC(c2ccccc2)C3)CC1 (stereo not shown)
5.66
CC(NC(=O)C1CCN(C(=O)c2ncn3c2COC(c2ccccc2)C3)CC1)c1ccc(F)cc1 (stereo not shown)
5.16

Record request: pIC50 or pSDR50 FLuc E value, item CSc1ccc(CNC(=O)C2CCN(C(=O)c3ncn4c3COC(c3ccccc3)C4)CC2)cc1 (stereo not shown) 5.26

Record request: pIC50 or pSDR50 FLuc E value, item O=C(NCc1ccc2c(c1)OCO2)C1CCN(C(=O)c2ncn3c2COC(c2ccccc2)C3)CC1 (stereo not shown) 5.51

Record request: pIC50 or pSDR50 FLuc E value, item O=C(NCCC1=CCCCC1)C1CCN(C(=O)c2ncn3c2COC(c2ccccc2)C3)CC1 (stereo not shown) 5.56

Record request: pIC50 or pSDR50 FLuc E value, item O=C(NC1CCCCCC1)C1CCN(C(=O)c2ncn3c2COC(c2ccccc2)C3)CC1 (stereo not shown) 5.26

Record request: pIC50 or pSDR50 FLuc E value, item O=C(NCc1ccccc1Cl)C1CCN(C(=O)c2ncn3c2COC(c2ccccc2)C3)CC1 (stereo not shown) 5.01

Record request: pIC50 or pSDR50 FLuc E value, item O=C(NC1CCCCCCC1)C1CCN(C(=O)c2ncn3c2COC(c2ccc(F)cc2)C3)CC1 (stereo not shown) 4.81

Record request: pIC50 or pSDR50 FLuc E value, item COc1cccc(CNC(=O)C2CCN(C(=O)c3ncn4c3COC(c3ccccc3)C4)CC2)c1 (stereo not shown) 5.26

Record request: pIC50 or pSDR50 FLuc E value, item O=C(NCc1ccc(F)cc1Cl)C1CCN(C(=O)c2ncn3c2COC(c2ccccc2)C3)CC1 (stereo not shown) 5.01

* * *

# System: FLuc-C-HiBiT (Photinus pyralis, UniProt P08659)
# Construct: firefly luciferase with C-terminal HiBiT tag, E. coli expressed
# Sequence (P08659 whole entry, looked up): as the sequence (P08659 whole entry) above
# Test summary: biochemical
# Measurement parameters: enzyme activity, 10 uM ATP; read-out: IC50 or SDR50 (mM) / FLuc E
Below, each of the molecules is paired with its reported log10(IC50) value.
Hi team, quick reminder: these entries are log10 of IC50 (µM).

Record request: log10(IC50) value, item COc1ccccc1C(=O)NCCn1ccn2nc(-c3ccc(C)cc3C)cc2c1=O [NCGC00456987-01] 1.00

Record request: log10(IC50) value, item Cc1ccc(-n2ncc3c(NC4CCCCC4)ncnc32)cc1Cl [NCGC00139149-01] 0.45

Record request: log10(IC50) value, item O=C(COc1ccc(Cl)cc1)Nc1ccc(-c2nc3cc(Cl)ccc3o2)c(O)c1 [NCGC00099397-01] 0.85

Record request: log10(IC50) value, item Cc1ccc(/C=C/c2nc3ccccc3[nH]2)cc1 [NCGC00139422-01] -1.35

Record request: log10(IC50) value, item Cc1nn(-c2ccc(C(C)(C)C)cc2)c(C)c1[C@@H]1C=C[C@@H](NC(=O)CCCC(=O)O)C1 [NCGC00400254-01] 1.31

Record request: log10(IC50) value, item O=C(Nc1ccc2c(c1)OCCO2)C1CN([S+](=O)([O-])C2CC2)CC12CCCCC2 (centres unmarked) [NCGC00439803-01] 0.65

Record request: log10(IC50) value, item COCCN1CCOc2nc(-c3cccc(N(C)C)c3)ncc2C1=O [NCGC00413458-01] 1.26

* * *

# System: UniProt:P08659
# Test summary: FLuc enzymatic luminescence assay, P. pyralis FLuc
# Type: biochemical
# Measurement parameters: Sample Data Type FLuc-Km
Below, each of the compounds is paired with its reported Hill Coef value.
I'd appreciate a reply containing only the number, no unit.

Worked examples, 3 compounds total:
CC(C)CCNC(=O)C1CCN(C(=O)c2ncn3c2COC(c2ccc(F)cc2)C3)CC1 (stereo not shown)
2.25
CC(C)NC(=O)C1CCN(C(=O)c2ncn3c2COC(c2ccccc2)C3)CC1 (stereo not shown)
1.10
CCC(CC)NC(=O)C1CCN(C(=O)c2ncn3c2COC(c2ccc(F)cc2)C3)CC1 (stereo not shown)
1.51

# ---- query compound ----
Record request: Hill Coef value, item Cc1ccc(C2Cn3cnc(C(=O)N4CCC(C(=O)NCCC(C)C)CC4)c3CO2)cc1 (stereo not shown) 1.21

* * *

# System: FLuc-N-HiBiT (firefly luciferase) (Photinus pyralis, UniProt P08659, form not given/L550V)
# Test summary: SDR assay, FLuc-N-HiBiT
# Measurement parameters: SDR; substituted indoline (clade A'); + ATP
Metric name: % Activity (max response, + ATP) (%)
// units = %; emit number, no label

Worked examples, 9 compounds total:
COc1ccc(NC(=O)N2CCc3c(C(=O)N(C)C)cccc32)cc1 [NCGC00430182-01]
126.00
O=C(O)c1cccc2c1CCN2C(=O)c1ccc(F)cc1 [NCGC00432675-01]
81.35
COc1ccc(NC(=O)N2CCc3c(C(=O)NCCCN4CCCC4=O)cccc32)cc1 [NCGC00430130-01]
129.70
CCOC(=O)C1CCN(C(=O)c2cccc3c2CCN3C(=O)Nc2ccccc2)CC1 [NCGC00430100-01]
124.90
CNC(=O)c1cccc2c1CCN2C(=O)Nc1ccc(C)cc1 [NCGC00430160-01]
123.10
O=C(NCCc1cccs1)c1cccc2c1CCN2C(=O)Nc1ccc(F)cc1 [NCGC00430196-01]
108.30
COc1ccc(NC(=O)N2CCc3c(C(=O)NCCN4CCCCCC4)cccc32)cc1 [NCGC00430136-01]
125.00
Cc1ccc(NC(=O)N2CCc3c(C(=O)NCc4ccco4)cccc32)cc1 [NCGC00430166-01]
127.00
CN(C)C(=O)c1cccc2c1CCN2C(=O)Nc1ccc(F)cc1 [NCGC00430198-01]
116.90

Record request: % Activity (max response, + ATP) value, item CN(C)CCNC(=O)c1cccc2c1CCN2C(=O)Nc1ccccc1 [NCGC00430150-01] 120.00
